# ASSAYED_SYSTEM: human recombinant CB2 receptor (Homo sapiens, UniProt P34972)
# Sequence (P34972 whole entry): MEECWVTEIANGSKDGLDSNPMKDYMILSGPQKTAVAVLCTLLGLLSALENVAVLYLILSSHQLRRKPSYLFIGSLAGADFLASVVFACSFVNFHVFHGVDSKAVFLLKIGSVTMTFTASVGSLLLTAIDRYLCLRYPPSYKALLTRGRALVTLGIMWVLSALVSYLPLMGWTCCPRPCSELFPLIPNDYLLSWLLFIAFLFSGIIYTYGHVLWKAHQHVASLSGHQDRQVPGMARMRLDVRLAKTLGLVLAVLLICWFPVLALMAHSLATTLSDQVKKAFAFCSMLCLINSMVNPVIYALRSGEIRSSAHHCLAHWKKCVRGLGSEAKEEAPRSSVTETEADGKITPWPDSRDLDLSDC
# EXPERIMENTAL_PROTOCOL: Cannabinoid receptor binding, [3H]-CP-55,940 displacement, CB2
pIC50: −log10 of the molar value.
QUANTITY_KIND: pIC50

{"COMPOUND": "CCCCCCCC/C=C\\CCCCCCCC(=O)NCC(=O)O [OlGly, N-oleoyl-glycine]", "TEST_RESULT": "< 4.30"}

---

# ASSAYED_SYSTEM: human recombinant CB2 receptor (Homo sapiens, UniProt P34972)
# EXPERIMENTAL_PROTOCOL: Cannabinoid receptor binding, [3H]-CP-55,940 displacement, CB2

{"COMPOUND": "CCCCCCCC/C=C\\CCCCCCCC(=O)NCC(=O)O [OlGly, N-oleoyl-glycine]", "Ki": "> 50 µM"}

---

# ASSAYED_SYSTEM: human recombinant CB1 receptor (Homo sapiens)
# Sequence (P21554 whole entry): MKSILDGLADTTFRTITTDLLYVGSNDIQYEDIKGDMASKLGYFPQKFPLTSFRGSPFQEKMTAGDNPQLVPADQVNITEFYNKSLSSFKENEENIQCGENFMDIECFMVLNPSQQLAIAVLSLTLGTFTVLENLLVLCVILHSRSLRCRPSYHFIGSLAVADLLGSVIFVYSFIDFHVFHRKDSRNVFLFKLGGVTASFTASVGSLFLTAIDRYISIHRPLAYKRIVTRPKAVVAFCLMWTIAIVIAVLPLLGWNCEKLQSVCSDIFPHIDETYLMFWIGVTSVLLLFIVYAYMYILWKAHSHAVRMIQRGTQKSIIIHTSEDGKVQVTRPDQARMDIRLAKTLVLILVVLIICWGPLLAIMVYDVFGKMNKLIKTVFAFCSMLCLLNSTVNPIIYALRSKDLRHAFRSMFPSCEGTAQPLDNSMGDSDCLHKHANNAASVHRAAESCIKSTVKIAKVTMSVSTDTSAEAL
# EXPERIMENTAL_PROTOCOL: Cannabinoid receptor binding, [3H]-CP-55,940 displacement, CB1

{"SMILES_STRUCTURE": "CCCCCCCC/C=C\\CCCCCCCC(=O)NCC(=O)O", "IC50 (µM)": 45.5}
